Source: the supplement of paper PMC6897291

# System: U-2932
# test-name: growth inhibition by drug alone (1 - RLU/untreated control) (fraction); higher = stronger inhibition
# test-conditions: 10 nM; time (day): 6; 177Lu-lilotomab satetraxetan 0 ug/ml
Outcome label depends on growth inhibition by drug alone relative to 0.08: at/above gives Satisfied, below gives Not satisfied.

Look over these answered cases.
Enquiry: Decide: is the reported value of growth inhibition by drug alone for `Cc1cc(Nc2cc(N3CCN(C)CC3)nc(/C=C/c3ccccc3)n2)n[nH]1` equal to or greater than 0.08?
Return: Not satisfied

Enquiry: Decide: is the reported value of growth inhibition by drug alone for `C=CC[C@@H]1/C=C(\C)C[C@H](C)C[C@H](OC)[C@H]2O[C@@](O)(C(=O)C(=O)N3CCCC[C@H]3C(=O)O[C@H](/C(C)=C/[C@@H]3CC[C@@H](O)[C@H](OC)C3)[C@H](C)[C@@H](O)CC1=O)[C@H](C)C[C@@H]2OC` equal to or greater than 0.08?
Return: Satisfied

Enquiry: Decide: is the reported value of growth inhibition by drug alone for `COc1ncc(-c2ccc3nccc(-c4ccnnc4)c3c2)cc1NS(=O)(=O)c1ccc(F)cc1F` equal to or greater than 0.08?
Return: Satisfied

Enquiry: Decide: is the reported value of growth inhibition by drug alone for CC[C@H](CO)Nc1nc(NCc2ccccc2)c2ncn(C(C)C)c2n1 [Roscovitine (Seliciclib, CYC202)] equal to or greater than 0.08?
Return: Not satisfied

Enquiry: Decide: is the reported value of growth inhibition by drug alone for CCOc1cc2ncc(C#N)c(Nc3ccc(F)c(Cl)c3)c2cc1NC(=O)/C=C/CN(C)C [Pelitinib (EKB-569)] equal to or greater than 0.08?
Return: Not satisfied

***
Enquiry: Decide: is the reported value of growth inhibition by drug alone for `CC(C)(C)c1cnc(CSc2cnc(NC(=O)C3CCNCC3)s2)o1` equal to or greater than 0.08?
Return: Not satisfied

Enquiry: Decide: is the reported value of growth inhibition by drug alone for `O=C(c1cc(Cc2n[nH]c(=O)c3ccccc23)ccc1F)N1CCN(C(=O)C2CC2)CC1` equal to or greater than 0.08?
Return: Not satisfied

Enquiry: Decide: is the reported value of growth inhibition by drug alone for `COc1ccc(CCN2CCN(CCCc3ccccc3)CC2)cc1OC` equal to or greater than 0.08?
Return: Not satisfied

Enquiry: Decide: is the reported value of growth inhibition by drug alone for `CC(C)CC(=O)Nc1n[nH]c2c1CN(C(=O)C1CCN(C)CC1)C2(C)C` equal to or greater than 0.08?
Return: Not satisfied

Enquiry: Decide: is the reported value of growth inhibition by drug alone for `COc1cc2c(cc1OC)CN(CCc1ccc(NC(=O)c3cccc4c(=O)c5cccc(OC)c5[nH]c34)cc1)CC2` equal to or greater than 0.08?
Return: Not satisfied

Enquiry: Decide: is the reported value of growth inhibition by drug alone for CC(=O)O[C@]1(C(C)=O)CC[C@H]2[C@@H]3C=C(C)C4=CC(=O)CC[C@]4(C)[C@H]3CC[C@@]21C [Megestrol Acetate] equal to or greater than 0.08?
Return: Not satisfied

Enquiry: Decide: is the reported value of growth inhibition by drug alone for `CCOc1cc2ncc(C#N)c(Nc3ccc(OCc4ccccn4)c(Cl)c3)c2cc1NC(=O)/C=C/CN(C)C` equal to or greater than 0.08?
Return: Not satisfied

Enquiry: Decide: is the reported value of growth inhibition by drug alone for CN(CCOc1ccc(CC2SC(=O)NC2=O)cc1)c1ccccn1 (stereo not given) equal to or greater than 0.08?
Return: Not satisfied

Enquiry: Decide: is the reported value of growth inhibition by drug alone for `CN(C)C[C@@H]1CCn2cc(c3ccccc32)C2=C(C(=O)NC2=O)c2cn(c3ccccc23)CCO1` equal to or greater than 0.08?
Return: Not satisfied

Enquiry: Decide: is the reported value of growth inhibition by drug alone for `CN1CCN(c2nc(C3=C(c4c[nH]c5ccccc45)C(=O)NC3=O)c3ccccc3n2)CC1` equal to or greater than 0.08?
Return: Satisfied

Enquiry: Decide: is the reported value of growth inhibition by drug alone for C[C@]12CCC(=O)C=C1CC[C@@H]1[C@@H]2[C@@H](O)C[C@@]2(C)[C@H]1CC[C@]2(O)C(=O)CO [Hydrocortisone (Cortisol)] equal to or greater than 0.08?
Return: Not satisfied

Enquiry: Decide: is the reported value of growth inhibition by drug alone for `CCN(CC)CCCCNc1ncc2cc(-c3cc(OC)cc(OC)c3)c(NC(=O)NC(C)(C)C)nc2n1` equal to or greater than 0.08?
Return: Not satisfied

Enquiry: Decide: is the reported value of growth inhibition by drug alone for `CO[C@H]1C[C@@H]2CC[C@@H](C)[C@@](O)(O2)C(=O)C(=O)N2CCCC[C@H]2C(=O)O[C@H]([C@H](C)C[C@@H]2CC[C@@H](OC(=O)C(C)(CO)CO)[C@H](OC)C2)CC(=O)[C@H](C)/C=C(\C)[C@@H](O)[C@@H](OC)C(=O)[C@H](C)C[C@H](C)/C=C/C=C/C=C/1C` equal to or greater than 0.08?
Return: Satisfied

Enquiry: Decide: is the reported value of growth inhibition by drug alone for `CC(=O)c1c(C)c2cnc(Nc3ccc(N4CCNCC4)cn3)nc2n(C2CCCC2)c1=O` equal to or greater than 0.08?
Return: Not satisfied

* * *

# System: RIVA
# test-name: growth inhibition by drug alone (1 - RLU/untreated control) (fraction); higher = stronger inhibition
# test-conditions: 10 nM; time (day): 4; 177Lu-lilotomab satetraxetan 0 ug/ml
Structures can show the parent of a compound that is named as a salt.
Outcome label depends on growth inhibition by drug alone relative to -0.09: at/above gives Condition met, below gives Condition not met.

Look over these answered cases.
Enquiry: Decide: is the reported value of growth inhibition by drug alone for Cc1nnc(C(C)C)n1C1C[C@H]2CC[C@@H](C1)N2CC[C@H](NC(=O)C1CCC(F)(F)CC1)c1ccccc1 (stereo in doubt) equal to or greater than -0.09?
Return: Condition met

Enquiry: Decide: is the reported value of growth inhibition by drug alone for O=C1CN2Cc3c(ccc(Cl)c3Cl)N=C2N1 [Anagrelide] equal to or greater than -0.09?
Return: Condition met

Enquiry: Decide: is the reported value of growth inhibition by drug alone for `COc1cc2ncnc(Nc3ccc(Oc4ccccc4)cc3)c2cc1OC` equal to or greater than -0.09?
Return: Condition met

Enquiry: Decide: is the reported value of growth inhibition by drug alone for CC/C(=C(\c1ccccc1)c1ccc(OCCN(C)C)cc1)c1ccccc1 [Tamoxifen Citrate (Nolvadex)] equal to or greater than -0.09?
Return: Condition met

***
Enquiry: Decide: is the reported value of growth inhibition by drug alone for O=C(CCCCCCC(=O)Nc1cccnc1)NO [Pyroxamide] equal to or greater than -0.09?
Return: Condition not met

Enquiry: Decide: is the reported value of growth inhibition by drug alone for `COCC[n+]1c2c(n(Cc3cnccn3)c1C)C(=O)c1ccccc1C2=O` equal to or greater than -0.09?
Return: Condition met

Enquiry: Decide: is the reported value of growth inhibition by drug alone for `S=C(NCc1ccc2c(c1)OCO2)N1CCN(c2ncnc3c2oc2ccccc23)CC1` equal to or greater than -0.09?
Return: Condition met

Enquiry: Decide: is the reported value of growth inhibition by drug alone for COc1cc2/c(=N/c3ccc(Br)cc3F)nc[nH]c2cc1OCC1CCN(C)CC1 [Vandetanib (Zactima)] equal to or greater than -0.09?
Return: Condition not met

Enquiry: Decide: is the reported value of growth inhibition by drug alone for COc1cc([C@@H]2c3cc4c(cc3[C@@H](O[C@@H]3O[C@@H]5CO[C@@H](C)O[C@H]5[C@H](O)[C@H]3O)[C@H]3COC(=O)[C@H]23)OCO4)cc(OC)c1O [Etoposide (VP-16)] equal to or greater than -0.09?
Return: Condition not met

Enquiry: Decide: is the reported value of growth inhibition by drug alone for COc1c(C)c2c(c(O)c1C/C=C(\C)CCC(=O)O)C(=O)OC2 [Mycophenolic (Mycophenolate)] equal to or greater than -0.09?
Return: Condition met

* * *

# System: RIVA
# test-name: growth inhibition by drug alone (1 - RLU/untreated control) (fraction); higher = stronger inhibition
# test-conditions: 100 nM; time (day): 3; 177Lu-lilotomab satetraxetan 0 ug/ml
measurement-type: growth inhibition by drug alone
No unit in the answer, please; the number alone is enough.

Enquiry: Which growth inhibition by drug alone is listed for `COc1ccc(/C=C\c2cc(OC)c(OC)c(OC)c2)cc1O` ?
Return: 0.924

***
Enquiry: Which growth inhibition by drug alone is listed for `Cc1cccc(-c2[nH]c(C(C)(C)C)nc2-c2ccc3nccnc3c2)n1` ?
Return: -0.418

Enquiry: Which growth inhibition by drug alone is listed for `O=C(O)Cc1cccc(OCCCN(Cc2cccc(C(F)(F)F)c2Cl)CC(c2ccccc2)c2ccccc2)c1` ?
Return: 0.667

Enquiry: Which growth inhibition by drug alone is listed for CO[C@H]1C[C@@H]2CC[C@@H](C)[C@@](O)(O2)C(=O)C(=O)N2CCCC[C@H]2C(=O)O[C@H]([C@H](C)C[C@@H]2CC[C@@H](O)[C@H](OC)C2)CC(=O)[C@H](C)/C=C(\C)[C@@H](O)[C@@H](OC)C(=O)[C@H](C)C[C@H](C)/C=C/C=C/C=C/1C [Rapamycin (Sirolimus)] ?
Return: 0.8
